Data credit: PubChem BioAssay (NCATS)

# Test system: CP266
# protocol: qHTS profiling for inhibitors of Plasmodium falciparum proliferation (AID 504749); further: nearly all actives have a fitted effect of over 60% in size
# assay_context: P. falciparum in erythrocytes, SYBR Green DNA, 72 h; series mostly up to 28.7 µM
Records with an inconclusive call do not appear. Activity calls are given as the source filed them. The call rests on the fitted dose curve; in most records, active means well fitted inhibition curve with a large enough effect; inconclusive means small, poorly fitted or top-dose-only effect; inactive means flat fitted curve, though single readings scatter.
Parameter call: string, one of active, inactive

CN(C)CC/C=C1\c2ccccc2Sc2ccc(Cl)cc21 :: inactive

Now, please, on to the next compound.
[Q] Would you mind telling me which call this test gave `CN(C)C(=S)SC(=S)N(C)C` ?
[A] inactive

----------
# assay_system: Cytochrome P450 2C9 (Homo sapiens)
# protocol: Cytochrome P450 family 2 subfamily C member 9 (CYP2C9) small molecule antagonists: luciferase biochemical (cell-free) qHTS assay (AID 1645842); further: nearly all actives have a fitted effect of over 55% in size
# assay_context: P450-Glo CYP2C9 enzyme assay, luciferin luminescence; series mostly up to 57.4 µM
Inconclusive results are not listed. Activity calls are given as the source filed them. Calls come from the whole dose curve; as a rule, active = well fitted inhibition curve with a large enough effect in the repeat runs; inconclusive = weak or mixed curves; inactive = no such curve, though single readings can be large or run the other way. Numbered stars: 1 amine (or outer) side, 2 acyl side, 3 side chain; on linkers, the order of the positions; unused ones are H or OH. Bridge positions count the residues as written; N and C are the ends. Square brackets hold non-standard residues; d marks the D form. Peptide text beside a SMILES is read from it. I, II: the chains in the order shown. Actinocin(9to1) = Cc1c2oc3c(C)ccc(C(=O)[*:1])c3nc-2c(C(=O)[*:2])c(N)c1=O; NMeV = CN[C@H](C(=O)O)C(C)C; Sar = CNCC(=O)O
Parameter call: string, one of active, inactive

C[C@]12C=CC(=O)C=C1[C@@H](F)C[C@@H]1[C@@H]2[C@@H](O)C[C@@]2(C)[C@H]1CC[C@]2(O)C(=O)CO :: inactive
O=C(O)CNC(=O)c1ccccc1 :: inactive

[Q] Would you mind telling me which call this test gave CN=C(NC#N)Nc1ccc(C2=NNC(=O)CC2C)cc1 (configuration not stated) ?
[A] inactive

[Q] Would you mind telling me which call this test gave `Cc1nc2n(c(=O)c1CCN1CCC(c3noc4cc(F)ccc34)CC1)CCC[C@H]2O` ?
[A] inactive

[Q] Would you mind telling me which call this test gave `Cc1c(C)n(CCN(C)C)c2ccc(C(=O)OCCN(C)C)cc12` ?
[A] inactive

[Q] Would you mind telling me which call this test gave `N[C@H](CO)C(=O)O` ?
[A] inactive

[Q] Would you mind telling me which call this test gave `CC(=O)OCC(=O)[C@@]12N=C(C)O[C@@H]1C[C@H]1[C@@H]3CCC4=CC(=O)C=C[C@]4(C)[C@H]3[C@@H](O)C[C@@]12C` ?
[A] inactive

[Q] Would you mind telling me which call this test gave `O=c1[nH]c(=O)n([C@H]2C[C@H](O)[C@@H](CO)O2)cc1C(F)(F)F` ?
[A] inactive

[Q] Would you mind telling me which call this test gave `Cc1ccnc(NS(=O)(=O)c2ccc(N)cc2)n1` ?
[A] inactive

[Q] Would you mind telling me which call this test gave `CCCCOc1cc(C(=O)NCCN(CC)CC)c2ccccc2n1` ?
[A] inactive

[Q] Would you mind telling me which call this test gave `Cc1c(C)n(Cc2ccccc2)c2ccc(C(=O)OCCN(C)C)cc12` ?
[A] active

[Q] Would you mind telling me which call this test gave `Oc1cc(O)c2c(c1)O[C@H](c1ccc(O)c(O)c1)[C@H](O)C2` ?
[A] inactive

[Q] Would you mind telling me which call this test gave `CC(C)=CCC1C(=O)N(c2ccccc2)N(c2ccccc2)C1=O` ?
[A] inactive

[Q] Would you mind telling me which call this test gave Cc1c2oc3c(C)ccc(C(=O)N[C@@H]4C(=O)N[C@H](C(C)C)C(=O)N5CCC[C@H]5C(=O)N(C)CC(=O)N(C)[C@@H](C(C)C)C(=O)O[C@@H]4C)c3nc-2c(C(=O)N[C@@H]2C(=O)N[C@H](C(C)C)C(=O)N3CCC[C@H]3C(=O)N(C)CC(=O)N(C)[C@@H](C(C)C)C(=O)O[C@@H]2C)c(N)c1=O (I: T[dV]P[Sar][NMeV] / II: T[dV]P[Sar][NMeV]; ester I:1-I:C, II:1-II:C; linker I:N-II:N via Actinocin(9to1)) ?
[A] inactive

[Q] Would you mind telling me which call this test gave `C[C@@H]1C[C@H]2[C@@H]3C[C@H](F)C4=CC(=O)C(Cl)=C[C@]4(C)[C@@]3(F)[C@@H](O)C[C@]2(C)[C@@]1(O)C(=O)CO` ?
[A] inactive

[Q] Would you mind telling me which call this test gave `CCOC(=O)COc1ccc2c(C)c(CCN(CC)CC)c(=O)oc2c1Cl` ?
[A] inactive

[Q] Would you mind telling me which call this test gave `CCCCCCCCCCCCCCNCCO` ?
[A] inactive
